B1: GAGE1 (parent)
chain: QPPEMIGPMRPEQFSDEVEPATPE

# Variants of: B1
# Assay notes: protein stability index of a GFP-peptide fusion (GPS, HEK-293T) (PSI 1-6); higher = more stable;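 note: lentivirally expressed fusions sorted by FACS into six bins by GFP to DsRed ratio, PSI derived from sequencing read proportions per bin multiplied by bin number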
# Measurement setup: c terminus: a fixed tail appended
Decide using protein stability index: a value greater than or equal to 5 is MET, a smaller one is NOT MET.

Solved cases (5 shown):
Variant annotation: R10I
Category label: MET
--
Variant annotation: P3R
Category label: MET
--
Variant annotation: E19R
Category label: NOT MET
--
Variant annotation: F14Q
Category label: MET
--
Variant annotation: P8M
Category label: NOT MET

Req: // inclusive: protein stability index at least 5? input: "A21W"
Resp: NOT MET

Req: Is reported protein stability index greater than or equal to 5 here: "P11E"
Resp: MET

Req: Is reported protein stability index greater than or equal to 5 here: "P2V"
Resp: NOT MET

Req: Assess whether reported protein stability index for "M5A" sits at 5 or higher.
Resp: MET
